test system: CAL-12T; test: relative viability (nuclei count vs DMSO), 5 days (fraction); higher = more cells survive; settings: first compound 0.08 µM
Label key: MET means relative viability under 0.7; NOT MET means relative viability of 0.7 or more.

Reference set, count: 9
CCCCCCCCCCCC1=C(O)C(=O)C=C(O)C1=O [Embelin] + CC(C)C[C@H](NC(=O)[C@H](Cc1ccccc1)NC(=O)c1cnccn1)B(O)O [Bortezomib] (partner 0.002 µM); NOT MET
CCCCCCCCCCCC1=C(O)C(=O)C=C(O)C1=O [Embelin] + N=C(N)NC(=N)NCCc1ccccc1 [Phenformin] (partner 250 µM); MET
CCCCCCCCCCCC1=C(O)C(=O)C=C(O)C1=O [Embelin] + Cc1cc(Nc2cc(N3CCN(C)CC3)nc(Sc3ccc(NC(=O)C4CC4)cc3)n2)n[nH]1 [Tozasertib] (partner 0.1 µM); MET
CCCCCCCCCCCC1=C(O)C(=O)C=C(O)C1=O [Embelin] + CS(=O)(=O)N1CCN(Cc2cc3nc(-c4cccc5[nH]ncc45)nc(N4CCOCC4)c3s2)CC1 [Pictilisib] (partner 1 µM); MET
CCCCCCCCCCCC1=C(O)C(=O)C=C(O)C1=O [Embelin] + O=C(CCCCCCC(=O)Nc1ccccc1)NO [Vorinostat] (partner 1 µM); NOT MET
CCCCCCCCCCCC1=C(O)C(=O)C=C(O)C1=O [Embelin] + CC1(C)CCC(c2ccc(Cl)cc2)=C(CN2CCN(c3ccc(C(=O)NS(=O)(=O)c4ccc(N[C@H](CCN5CCOCC5)CSc5ccccc5)c(S(=O)(=O)C(F)(F)F)c4)cc3)CC2)C1 [Navitoclax] (partner 0.5 µM); NOT MET
CCCCCCCCCCCC1=C(O)C(=O)C=C(O)C1=O [Embelin] + O=C(c1cc(Cc2n[nH]c(=O)c3ccccc23)ccc1F)N1CCN(C(=O)C2CC2)CC1 [Olaparib] (partner 8 µM); NOT MET
CCCCCCCCCCCC1=C(O)C(=O)C=C(O)C1=O [Embelin] + C[C@]1(O)C[C@@H](c2nc(-c3ccc4ccc(-c5ccccc5)nc4c3)c3c(N)nccn32)C1 [Linsitinib] (partner 1 µM); NOT MET
CCCCCCCCCCCC1=C(O)C(=O)C=C(O)C1=O [Embelin] + CS(=O)(=O)CCNCc1ccc(-c2ccc3ncnc(Nc4ccc(OCc5cccc(F)c5)c(Cl)c4)c3c2)o1 [Lapatinib] (partner 2 µM); NOT MET

Attention now shifts to the item below.
Lookup: Say whether its relative viability is strictly beneath 0.7. Entry: CCCCCCCCCCCC1=C(O)C(=O)C=C(O)C1=O [Embelin] + NC(=O)Nc1cc(-c2cccc(F)c2)sc1C(=O)N[C@H]1CCCNC1 [AZD7762] (partner 0.2 µM)
Found: MET

====

test system: NCI-H1944; test: relative viability (nuclei count vs DMSO), 5 days (fraction); higher = more cells survive; settings: first compound 0.1265 µM
Label key: met means relative viability under 1; not met means relative viability of 1 or more.

C[C@@H]1CN(CC(=O)Nc2ccc3c(c2)Cc2cccc(-c4cc(=O)cc(N5CCOCC5)o4)c2S3)C[C@H](C)O1 + C[C@@H](Oc1cc(-c2cnn(C3CCNCC3)c2)cnc1N)c1c(Cl)ccc(F)c1Cl [Crizotinib] (partner 1 µM); not met
COc1cc(N2CCC(C(N)=O)CC2)ccc1Nc1nc(N)c(Cl)c(Nc2ccccc2S(=O)(=O)C(C)C)n1 [HG-5-88-01] + CC(=O)c1c(C)c2cnc(Nc3ccc(N4CCNCC4)cn3)nc2n(C2CCCC2)c1=O [Palbociclib] (partner 0.5 µM); met
Clc1ccc(Nc2nnc(Cc3ccncc3)c3ccccc23)cc1 [Vatalanib] + CCNC(=O)c1noc(-c2cc(C(C)C)c(O)cc2O)c1-c1ccc(CN2CCOCC2)cc1 [Luminespib] (partner 0.01 µM); met
C[C@@H]1CN(CC(=O)Nc2ccc3c(c2)Cc2cccc(-c4cc(=O)cc(N5CCOCC5)o4)c2S3)C[C@H](C)O1 + NC(=O)Nc1cc(-c2cccc(F)c2)sc1C(=O)N[C@H]1CCCNC1 [AZD7762] (partner 0.2 µM); met
Clc1ccc(Nc2nnc(Cc3ccncc3)c3ccccc23)cc1 [Vatalanib] + O=C(CCCCCCC(=O)Nc1ccccc1)NO [Vorinostat] (partner 1 µM); met

Lookup: Say whether its relative viability is strictly beneath 1. Entry: Clc1ccc(Nc2nnc(Cc3ccncc3)c3ccccc23)cc1 [Vatalanib] + COc1cc2c(Oc3ccc(NC(=O)C4(C(=O)Nc5ccc(F)cc5)CC4)cc3F)ccnc2cc1OCCCN1CCOCC1 [Foretinib] (partner 0.25 µM)
Found: met

Lookup: Say whether its relative viability is strictly beneath 1. Entry: COc1cc(N2CCC(C(N)=O)CC2)ccc1Nc1nc(N)c(Cl)c(Nc2ccccc2S(=O)(=O)C(C)C)n1 [HG-5-88-01] + CC1(C)CCC(c2ccc(Cl)cc2)=C(CN2CCN(c3ccc(C(=O)NS(=O)(=O)c4ccc(N[C@H](CCN5CCOCC5)CSc5ccccc5)c(S(=O)(=O)C(F)(F)F)c4)cc3)CC2)C1 [Navitoclax] (partner 0.5 µM)
Found: not met

These measurements were taken from the supplement of paper PMC10307832.
